- Test system: Nocardia Asteroides ATCC 99700
- assayInfo: In vitro antibacterial activity, agar dilution MIC
- Format: cell-based
- appliedConditions: code VV, BHI agar, 35-37° C., 20-24 hours, unit assumed
- Method: Each plate was inoculated with 1:100 (or 1:10 for slow-growing strains, such as Micrococcus and Streptococcus) dilutions of up to 32 different microorganisms, using a Steers replicator block. The inoculated plates were incubated at 35-37° C. for 20-24 hours. In addition, a control plate using BHI agar with no test compound was prepared and incubated at the beginning and end of each test. A plate containing erythromycin A was also prepared to provide test-to-test comparability. […]
# reported Antibacterial Activity (MIC's); entries follow
propertyName: Antibacterial Activity (MIC's) (µg/mL)

{"columns": ["compound", "unitName", "qualifierSign", "observed"],
 "data": [
  ["CC[C@H]1OC(=O)[C@H](C)[C@@H](O[C@H]2C[C@@](C)(OC)[C@@H](O)[C@H](C)O2)[C@H](C)[C@@H](O[C@@H]2O[C@H](C)C[C@H](N(C)C)[C@H]2O)[C@](C)(O)C[C@@H](C)C(=O)[C@H](C)[C@@H](O)[C@]1(C)O [Ery. A, Erythromycin A, reference compound]", "µg/mL", "=", 0.1],
  ["CCC1OC(=O)C(CS(=O)(=O)O)C(=O)C(C)C(OC2OC(C)CC(N(C)C)C2O)C(C)(OCC=Cc2cnc3ccccc3c2)CC(C)C(=O)C(C)C2NC(=O)OC12C (stereo not shown)", "µg/mL", "=", 0.2],
  ["C=CCC1C(=O)OC(CC)C2(C)OC(=O)NC2C(C)C(=O)C(C)CC(C)(OCC=Cc2cnc3ccccc3c2)C(OC2OC(C)CC(N(C)C)C2O)C(C)C1=O (stereo not shown)", "µg/mL", ">", 100],
  ["CCC1OC(=O)CC(=O)C(C)C(OC2OC(C)CC(N(C)C)C2O)C(C)(OCC=Cc2cnc3ccccc3c2)CC(C)C(=O)C(C)C2NC(=O)OC12C (stereo not shown)", "µg/mL", "=", 0.2]
]}

---

- System: Staphylococcus aureus ATCC 6538P
- assayInfo: In vitro antibacterial activity, agar dilution MIC
- Format: cell-based
- appliedConditions: code AA, BHI agar, 35-37° C., 20-24 hours, unit assumed
- Description: Each plate was inoculated with 1:100 (or 1:10 for slow-growing strains, such as Micrococcus and Streptococcus) dilutions of up to 32 different microorganisms, using a Steers replicator block. The inoculated plates were incubated at 35-37° C. for 20-24 hours. In addition, a control plate using BHI agar with no test compound was prepared and incubated at the beginning and end of each test. A plate containing erythromycin A was also prepared to provide test-to-test comparability. […]

{"columns": ["molecule", "Antibacterial Activity (MIC's)"],
 "data": [
  ["CCC1OC(=O)CC(=O)C(C)C(OC2OC(C)CC(N(C)C)C2O)C(C)(OCC=Cc2cnc3ccccc3c2)CC(C)C(=O)C(C)C2NC(=O)OC12C (stereo not shown)", "0.39 µg/mL"],
  ["C=CCC1C(=O)OC(CC)C2(C)OC(=O)NC2C(C)C(=O)C(C)CC(C)(OCC=Cc2cnc3ccccc3c2)C(OC2OC(C)CC(N(C)C)C2O)C(C)C1=O (stereo not shown)", "> 100 µg/mL"],
  ["CC[C@H]1OC(=O)[C@H](C)[C@@H](O[C@H]2C[C@@](C)(OC)[C@@H](O)[C@H](C)O2)[C@H](C)[C@@H](O[C@@H]2O[C@H](C)C[C@H](N(C)C)[C@H]2O)[C@](C)(O)C[C@@H](C)C(=O)[C@H](C)[C@@H](O)[C@]1(C)O [Ery. A, Erythromycin A, reference compound]", "0.2 µg/mL"],
  ["CCC1OC(=O)C(CS(=O)(=O)O)C(=O)C(C)C(OC2OC(C)CC(N(C)C)C2O)C(C)(OCC=Cc2cnc3ccccc3c2)CC(C)C(=O)C(C)C2NC(=O)OC12C (stereo not shown)", "0.39 µg/mL"]
]}
